species on record: Rattus norvegicus; assay: DrugMatrix - Regimen: Daily Repeat; type: toxicity, organism-based, Sprague-Dawley; parameters: regimen Daily Repeat, gender Male, age 6-8 weeks; conditions: in vivo, po, 10 mg/kg, 72 h, tissue Plasma, route oral GAVAGE, dose level Low, time 3 day, […]
Below, each entry is listed with its recorded ASPARTATE AMINOTRANSFERASE.
Property measured: ASPARTATE AMINOTRANSFERASE

CC(C)CC(N(C)C)C1(c2ccc(Cl)cc2)CCC1 (centres undefined) :: 88.33 u/L
COc1ccc2cc([C@H](C)C(=O)O)ccc2c1 :: 84 u/L
COCCOC(=O)C1=C(C)NC(C)=C(C(=O)OC(C)C)C1c1cccc([N+](=O)[O-])c1 (centres undefined) :: 88 u/L
CCOC(=O)C1=C(C)NC(C)=C(C(=O)OC)C1c1cccc([N+](=O)[O-])c1 (centres undefined) :: 86 u/L

* * *

Below, each entry is listed with its recorded ALBUMIN.
species: Rattus norvegicus; experiment: DrugMatrix - Regimen: Daily Repeat; format: toxicity, organism-based, Sprague-Dawley; set-up: regimen Daily Repeat, gender Male, age 6-8 weeks; details: in vivo, iv, 0 mg/kg, 120 h, tissue Plasma, dose level Control, time 5 day, vehicle 100 % SALINE
Property measured: ALBUMIN (G/DL)

CCc1c2c(nc3ccc(OC(=O)N4CCC(N5CCCCC5)CC4)cc13)-c1cc3c(c(=O)n1C2)COC(=O)[C@]3(O)CC :: 4.23
CCC1=C[C@@H]2CN(C1)Cc1c([nH]c3ccccc13)[C@@](C(=O)OC)(c1cc3c(cc1OC)N(C)[C@H]1[C@@](O)(C(=O)OC)[C@H](OC(C)=O)[C@]4(CC)C=CCN5CC[C@]31[C@@H]54)C2 :: 4.23
CC[C@]1(O)C[C@@H]2CN(CCc3c([nH]c4ccccc34)[C@@](C(=O)OC)(c3cc4c(cc3OC)N(C)[C@H]3[C@@](O)(C(=O)OC)[C@H](OC(C)=O)[C@]5(CC)C=CCN6CC[C@]43[C@@H]65)C2)C1 :: 4.12

* * *

Below, each entry is listed with its recorded NUCLEATED RED BLOOD CELLS.
species: Rattus norvegicus; assay: DrugMatrix - Regimen: Daily Repeat; type: toxicity, organism-based, Sprague-Dawley; parameters: regimen Daily Repeat, gender Male, age 6-8 weeks; details: in vivo, po, 0 mg/kg, 120 h, tissue Blood, route oral GAVAGE, dose level Control, time 5 day, vehicle 100 % WATER
Property measured: NUCLEATED RED BLOOD CELLS

C[C@@H]1C[C@@H]([C@H](O)CC2CC(=O)NC(=O)C2)C(=O)[C@@H](C)C1 [CYCLOHEXIMIDE] :: 0 /100WBC
Cc1ncc([N+](=O)[O-])n1CCO [METRONIDAZOLE] :: 0 /100WBC
COc1ccc2c(c1)c(CC(=O)O)c(C)n2C(=O)c1ccc(Cl)cc1 [INDOMETHACIN] :: 0 /100WBC
ClC(Cl)Cl [CHLOROFORM] :: 0 /100WBC
CC(C)(C)c1ccc(C(=O)CCCN2CCC(OC(c3ccccc3)c3ccccc3)CC2)cc1 [EBASTINE] :: 0 /100WBC

* * *

species: Rattus norvegicus; assay: DrugMatrix - Regimen: Daily Repeat; type: toxicity, organism-based, Sprague-Dawley; design: regimen Daily Repeat, gender Male, age 6-8 weeks; conditions: in vivo, po, 1500 mg/kg, 120 h, tissue Blood, route oral GAVAGE, dose level High, time 5 day, vehicle .5 % CMC
Property measured: HEMOGLOBIN

NC(=O)c1cnccn1 [PYRAZINAMIDE] :: 14.83 G/DL
CNC(=C[N+](=O)[O-])NCCSCc1ccc(CN(C)C)o1 [RANITIDINE] :: 15.3 G/DL
Cc1ccc(S(=O)(=O)NC(=O)NN2CC3CCCC3C2)cc1 (centres undefined) [GLICLAZIDE] :: 14.7 G/DL
Cc1cc(=O)n(-c2ccccc2)n1C [ANTIPYRINE] :: 14.13 G/DL

Entry source: ChEMBL document CHEMBL3885881
